Data provenance is patent US20250243219A1.

assay: Blood-brain barrier penetration, intravenous dosing; format: in vivo, rodents (mice or rats); conditions: brain; 3 mg/kg intravenous; at 30 min.; read-out: Brain concentration
Property name: concentration at 30 min (ng/mL)
Provide only the numeric value, understood in ng/mL.

Fill in the blank: the reported concentration at 30 min of CC(C)[C@@H]1OC(=O)C(C)(C)/C=C/c2ccc3ccc(nc3c2)N(C)NC(=O)[C@@H]2CCCN(N2)C(=O)[C@H](C)NC1=O is ____.
170

###

assay: Pharmacokinetics in mice, subcutaneous administration; type: in vivo, mice (strain FVB/N); conditions: FVB/N, mouse, plasma, sc; subcutaneous 10 mg/kg; read-out: Tmax Plasma
Property name: Tmax (min)
Provide only the numeric value, understood in min.

Fill in the blank: the reported Tmax of CC(C)[C@@H]1OC(=O)C(C)(C)/C=C/c2ccc3ccc(nc3c2)N(C)NC(=O)[C@@H]2CCCN(N2)C(=O)[C@H](C)NC1=O is ____.
30

###

target: cyclophilin A (Homo sapiens (Human), UniProt P62937); experiment: Functional peptidyl prolyl isomerase (PPIase) spectrophotometric assay, cyclophilin A; conditions: first value of CypA/D cell
Sequence (P62937 whole entry, species assumed): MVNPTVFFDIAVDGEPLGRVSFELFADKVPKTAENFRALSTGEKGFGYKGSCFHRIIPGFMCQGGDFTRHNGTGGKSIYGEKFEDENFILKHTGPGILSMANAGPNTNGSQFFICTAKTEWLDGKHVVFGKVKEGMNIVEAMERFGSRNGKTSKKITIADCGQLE
Property name: pKi
pKi field: float, defined as -log10 of concentration (mol/L).

Fill in the blank: the reported pKi of CC(C)[C@@H]1OC(=O)C(C)(C)/C=C/c2ccc3ccc(nc3c2)N(C)NC(=O)[C@@H]2CCCN(N2)C(=O)[C@H](C)NC1=O is ____.
8.30

Can you check C[C@@H]1NC(=O)[C@H](CN2CCNCC2)OC(=O)C(C)(C)/C=C/c2ccc3ccc(nc3c2)N(C)NC(=O)[C@@H]2CCCN(N2)C1=O next?
7.59

Can you check COC[C@@]1(C)/C=C/c2ccc3ccc(nc3c2)N(C)NC(=O)[C@@H]2CCCN(N2)C(=O)[C@H](C)NC(=O)[C@H](C(C)C)OC1=O next?
8.31

###

Molecular target: cyclophilin A (Homo sapiens (Human))
Test: Functional peptidyl prolyl isomerase (PPIase) spectrophotometric assay, cyclophilin A
Assay type: biochemical
Conditions: first value of CypA/D cell
Method: Cyclophilins are enzymes that catalyse the cis-trans isomerisation of peptide bonds to the amino acid proline. This event is important in many biological processes, including protein folding and signal transduction. […] A first order rate equation is fitted to the absorbance data to obtain a rate constant. The catalytic rate is calculated from the enzymatic rate minus the background rate. […] Typically, a 6-point dose response curve is obtained from duplicates and a Ki determined. […]
Strictly below 8 nM in Ki: TRUE. Otherwise: FALSE.

Record CC(C)[C@@H]1OC(=O)C(C)(C)/C=C/c2ccc3ccc(nc3c2)N(C)NC(=O)[C@@H]2CCCN(N2)C(=O)[C@H](CCC(=O)N(C)c2ccccc2)NC1=O : is its Ki strictly below 8 nM?
TRUE

Can you check C[C@@H]1NC(=O)C(Cc2ccc(N)nc2)OC(=O)C(C)(C)/C=C/c2ccc3ccc(nc3c2)N(C)NC(=O)[C@@H]2CCCN(N2)C1=O (some centres unmarked) next?
FALSE

Can you check CC(C)[C@H]1OC(=O)C/C=C/c2ccc3ccc(nc3c2)N(C)NC(=O)[C@@H]2CCCN(N2)C(=O)[C@H](C)NC1=O (stereo in doubt) next?
FALSE

Can you check CC(C)[C@H]1C(=O)N[C@@H](C)C(=O)N2CCC[C@H](N2)C(=O)NN(C)c2ccc3ccc(cc3n2)/C=C/C(C)(C)CN1C next?
FALSE

Can you check CC(C)[C@@H]1OC(=O)C2(/C=C/c3ccc4ccc(nc4c3)N(C)NC(=O)[C@@H]3CCCN(N3)C(=O)[C@H](C)NC1=O)CCCC2 next?
TRUE

Can you check C[C@@H]1NC(=O)[C@H](CCC(N)=O)OC(=O)C(C)(C)/C=C/c2ccc3ccc(nc3c2)N(C)NC(=O)[C@@H]2CCCN(N2)C1=O next?
FALSE

Can you check C[C@@H]1NC(=O)[C@H](C2CCCC2)CC(=O)C(C)(C)/C=C/c2ccc3ccc(nc3c2)N(C)NC(=O)[C@@H]2CCCN(N2)C1=O next?
FALSE

Can you check C[C@@H]1NC(=O)[C@H](Cc2ccc(C(=O)O)cc2)OC(=O)C(C)(C)/C=C/c2ccc3ccc(nc3c2)N(C)N(C)C(=O)[C@@H]2CCCN(N2)C1=O next?
FALSE

Can you check C[C@@H]1NC(=O)[C@@H](CC2CCCNC2)OC(=O)C(C)(C)/C=C/c2ccc3ccc(nc3c2)N(C)NC(=O)[C@@H]2CCCN(N2)C1=O (single isomer, unassigned) next?
FALSE

Can you check CC(C)[C@@H]1OC(=O)[C@](C)(Cc2ccccc2)/C=C/c2ccc3ccc(nc3c2)N(C)NC(=O)[C@@H]2CCCN(N2)C(=O)[C@H](C)NC1=O next?
TRUE

###

test: Pharmacokinetics in mice, subcutaneous administration; assay type: in vivo, mice (strain FVB/N); details: FVB/N, mouse, brain and blood; subcutaneous 10 mg/kg
Property name: Kp
Number only, no unit.

Fill in the blank: the reported Kp of CC(C)[C@@H]1OC(=O)C(C)(C)/C=C/c2ccc3ccc(nc3c2)N(C)NC(=O)[C@@H]2CCCN(N2)C(=O)[C@H](C)NC1=O [Compound (2)] is ____.
0.9

###

target: UniProt:P30405; assay: Functional peptidyl prolyl isomerase (PPIase) spectrophotometric assay, cyclophilin D; conditions: second value of CypA/D cell; read-out: Ki CypD
Sequence (P30405 30-207, species assumed): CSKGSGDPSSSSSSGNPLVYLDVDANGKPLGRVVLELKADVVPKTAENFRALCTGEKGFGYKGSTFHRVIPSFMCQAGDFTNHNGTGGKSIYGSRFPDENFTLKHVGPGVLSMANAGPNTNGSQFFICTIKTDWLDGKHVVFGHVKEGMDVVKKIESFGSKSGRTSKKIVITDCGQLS
Can you tell me Ki for the items I'm about to list?
Provide only the numeric value, understood in nM.

Fill in the blank: the reported Ki of COC[C@]1(C)/C=C/c2ccc3ccc(nc3c2)N(C)NC(=O)[C@@H]2CCCN(N2)C(=O)[C@H](C)NC(=O)[C@H](C(C)C)OC1=O is ____.
25

Can you check C[C@@H]1NC(=O)[C@H](CN2CCNCC2)OC(=O)C(C)(C)/C=C/c2ccc3ccc(nc3c2)N(C)NC(=O)[C@@H]2CCCN(N2)C1=O next?
11

Can you check CC(C)[C@@H]1OC(=O)C(C)(C)/C=C/c2ccc3ncc(nc3c2)N(C)NC(=O)[C@@H]2CCCN(N2)C(=O)[C@H](C)NC1=O next?
13

Can you check C[C@@H]1NC(=O)[C@H](CC2CCNCC2)OC(=O)C(C)(C)/C=C/c2ccc3ccc(nc3c2)N(C)NC(=O)[C@@H]2CCCN(N2)C1=O next?
54.5

Can you check CC(C)[C@@H]1OC(=O)C(C)(C)/C=C/c2ccc3ccc(nc3c2)N(C)NC(=O)[C@@H]2CCCN(N2)C(=O)[C@H](C)NC1=O next?
17

###

molecular target: cyclophilin A (Homo sapiens (Human)); test: Functional peptidyl prolyl isomerase (PPIase) spectrophotometric assay, cyclophilin A; conditions: first value of CypA/D cell
pKi: −log10 of the molar value.
Use TRUE when the recorded pKi is no lower than 7; use FALSE when it is lower.

Decide: pKi of CC(C)[C@@H]1OC(=O)C(C)(C)CCc2ccc3ccc(nc3c2)N(C)NC(=O)[C@@H]2CCCN(N2)C(=O)[C@H](C)NC1=O >= 7?
FALSE

Can you check C[C@@H]1NC(=O)[C@@H](CC2CCCNC2)OC(=O)C(C)(C)/C=C/c2ccc3ccc(nc3c2)N(C)N(C)C(=O)[C@@H]2CCCN(N2)C1=O (single isomer, unassigned) [Compound (33)] next?
FALSE

Can you check C[C@@H]1NC(=O)[C@H](C2CCOCC2)OC(=O)C(C)(C)/C=C/c2ccc3ccc(nc3c2)N(C)NC(=O)[C@@H]2CCCN(N2)C1=O next?
TRUE

Can you check CNC(=O)c1ccc(C[C@@H]2OC(=O)C(C)(C)/C=C/c3ccc4ccc(nc4c3)N(C)N(C)C(=O)[C@@H]3CCCN(N3)C(=O)[C@H](C)NC2=O)cc1 next?
FALSE

Can you check CC(C)[C@@H]1OC(=O)C(C)(C)/C=C/c2ccc3ccc(nc3c2)N(C)NC(=O)[C@@H]2CCCN(N2)C(=O)[C@H](CCC(=O)N2CCC(O)CC2)NC1=O next?
TRUE

Can you check CC(C)[C@@H]1OC(=O)C(C)(C)/C=C/c2ccc3ccc(nc3c2)N(C)NC(=O)[C@@H]2CCCN(N2)C(=O)[C@H](CCC(=O)Nc2ccccc2)NC1=O next?
TRUE

Can you check C[C@@H]1NC(=O)[C@H](CCl)OC(=O)C(C)(C)/C=C/c2ccc3ccc(nc3c2)N(C)NC(=O)[C@@H]2CCCN(N2)C1=O next?
TRUE

Can you check CC(C)[C@@H]1OC(=O)C2(/C=C/c3ccc4ccc(nc4c3)N(C)NC(=O)[C@@H]3CCCN(N3)C(=O)[C@H](C)NC1=O)COCOC2 next?
FALSE

Can you check CC(C)[C@@H]1OC(=O)C(C)(C)C/C=C/c2ccc3ccc(nc3c2)N(C)NC(=O)[C@@H]2CCCN(N2)C(=O)[C@H](C)NC1=O next?
FALSE

Can you check C[C@@H]1NC(=O)[C@H](C[C@@H]2CCCN(C)C2)OC(=O)C(C)(C)/C=C/c2ccc3ccc(nc3c2)N(C)NC(=O)[C@@H]2CCCN(N2)C1=O next?
FALSE
